// data source = ChEMBL document CHEMBL1201862

Target: Heat shock factor protein 1 (Mus musculus)
Sequence (P38532 whole entry): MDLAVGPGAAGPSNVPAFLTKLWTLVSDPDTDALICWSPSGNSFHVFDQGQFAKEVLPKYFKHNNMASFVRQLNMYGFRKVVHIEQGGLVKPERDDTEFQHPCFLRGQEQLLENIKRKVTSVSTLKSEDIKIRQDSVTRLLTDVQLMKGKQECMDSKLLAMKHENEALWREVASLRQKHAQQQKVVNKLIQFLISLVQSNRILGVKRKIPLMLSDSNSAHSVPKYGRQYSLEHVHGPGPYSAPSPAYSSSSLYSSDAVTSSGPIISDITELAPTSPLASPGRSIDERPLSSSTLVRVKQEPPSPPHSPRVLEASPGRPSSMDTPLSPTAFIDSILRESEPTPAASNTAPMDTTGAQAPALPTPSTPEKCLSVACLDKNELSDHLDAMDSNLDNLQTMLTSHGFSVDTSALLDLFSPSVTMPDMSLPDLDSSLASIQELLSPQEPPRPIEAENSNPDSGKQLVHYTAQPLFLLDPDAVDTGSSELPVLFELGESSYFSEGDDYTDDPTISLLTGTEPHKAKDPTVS
Assay: HSF1 potentiators in luciferase reporter cells, confirmation, cell-based, NIH3T3, luminescence, dose retest (AID 435004);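 further: stress induced by proteasome inhibitor MG132 added 30 min after compound; luciferase reporter driven by HSF1 response element in NIH3T3 cells; actives raise luminescence as potentiators of the MG132 stress response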
Format: functional
Calls of active or inactive are those of the source. No stated cut-off is given here; in the data, actives have a measured EC50 and inactives only a lower limit.
Outcomes: label 1 (active), label 0 (inactive)

# compound, discreteLabel
rows = [
    ("Nc1nnc(SCC(=O)Nc2cccc3ccccc23)s1", "label 0"),
    ("O=C1c2cc([N+](=O)[O-])cc3cc([N+](=O)[O-])cc(c23)C(=O)N1c1ccccn1", "label 1"),
    ("Cc1cccc(OCC(=O)Nc2cc(C)ccc2O)c1", "label 1"),
    ("COc1ccc(OCc2nnnn2-c2ccccc2)cc1", "label 0"),
    ("NC1=NC(=O)/C(=C/c2cn(Cc3ccccc3)c3ccccc23)S1", "label 0"),
    ("COc1cccc(/C=C2\\N=C(SC)SC2=O)c1OC", "label 1"),
    ("CC1CCCCN1C(=O)COc1ccccc1F (configuration not stated)", "label 0"),
    ("COc1nc(C)ccc1-c1noc(-c2cccs2)n1", "label 0"),
    ("COc1ccc2nc3cc(Cl)ccc3c(Nc3cc(C(C)C)c(O)cc3C)c2c1", "label 1"),
    ("O=C(CC1S/C(=N\\CCc2ccccc2)N(/N=C/c2cccs2)C1=O)Nc1ccc(Cl)cc1 (configuration not stated)", "label 0"),
    ("COC(CNC(=O)C1CCCN(S(=O)(=O)c2c(C)noc2/C=C/c2cccs2)C1)OC (configuration not stated)", "label 1"),
    ("CCOC(=O)NC(=O)/C(C#N)=N/Nc1c(F)cccc1F", "label 0"),
]
